System: RXF 393
Experiment: NCI tumour cell line growth inhibition, 48 h
Active and inactive are the calls of the source. Rule as the data show it: active = GI50 up to about 1.1 µM and inactive = higher. Starred links: 1 amine or outer side, 2 acyl side, 3 side chain; linkers in the order of their positions; H or OH if unused. Positions of bridges follow the written chain, without caps; N, C: chain ends. Non-standard residues stand in square brackets, D forms with d. Residues, ends and D or L forms follow the SMILES beside them. Chains are numbered I, II in the order given. Actinocin(1to9) = Cc1c2oc3c(C)ccc(C(=O)[*:2])c3nc-2c(C(=O)[*:1])c(N)c1=O; aThr = C[C@H](O)[C@H](N)C(=O)O; NMeV = CN[C@H](C(=O)O)C(C)C; Sar = CNCC(=O)O
Please state which outcome applies, choosing from active, inactive

Record lookup: outcome of this test for `CCN(CC)CCCn1cnc2ncccc2c1=O` ?
inactive

Record lookup: outcome of this test for Cc1c2oc3c(C)ccc(C(=O)N[C@@H]4C(=O)N[C@H](C(C)C)C(=O)N5CCC[C@H]5C(=O)N(C)CC(=O)N(C)[C@@H](C(C)C)C(=O)O[C@H]4C)c3nc-2c(C(=O)N[C@@H]2C(=O)N[C@H](C(C)C)C(=O)N3CCC[C@H]3C(=O)N(C)CC(=O)N(C)[C@@H](C(C)C)C(=O)O[C@H]2C)c(N)c1=O (I: [aThr][dV]P[Sar][NMeV] / II: [aThr][dV]P[Sar][NMeV]; ester I:1-I:C, II:1-II:C; linker I:N-II:N via Actinocin(1to9)) ?
active

Record lookup: outcome of this test for `CC(C)(C)OC(=O)Nc1nnc(S(N)(=O)=O)s1` ?
inactive

Record lookup: outcome of this test for `Cc1ccnc(Nc2[nH]c(C(=O)c3ccc(Cl)cc3)c(N)c2C(=S)Nc2ccccc2)c1` ?
inactive

Record lookup: outcome of this test for `Cc1cn(S(=O)(=O)c2ccccc2)c2c(OCc3ccccc3)cc(NS(C)(=O)=O)cc12` ?
inactive

Record lookup: outcome of this test for COC(=O)c1ccccc1CC1Cc2ccc3c(c2C1)CCC3 (stereo not drawn) ?
inactive

Record lookup: outcome of this test for `C/N=c1\ss/c(=N\C(=S)N(C)C)n1C1CCCCC1` ?
inactive

Record lookup: outcome of this test for `CC(=O)N(C(C)=O)n1c(Cc2ccc(Cl)cc2)n[nH]c1=O` ?
inactive
